# measured_target: T1, human TIGIT (ECD)-his (human, UniProt Q495A1 22-141)
# T1 construct: bought protein; also called hTIGIT(ECD)-his; Cat #: 10917-H08H, Sino Biological; not shown: his tag of the bought protein
# T1 sequence: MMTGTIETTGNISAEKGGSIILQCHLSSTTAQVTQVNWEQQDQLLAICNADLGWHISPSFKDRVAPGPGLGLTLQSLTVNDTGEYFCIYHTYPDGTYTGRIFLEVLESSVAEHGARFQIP
# assay_summary: SPR (BIAcore 8K), human TIGIT (ECD)-his on CM5 chip, antibody injected
Below is a list of entries, each paired with its recorded Kd value.
Numeric only. Scale: nM

>>> reported_result("149G11-VH4VL3 (antibody, human IgG1, kappa, V domains shown, humanized, human IgG1/kappa) VH: QVQLVQSGAEVKKPGASVKVSCKASGYTFTNYWIHWVKQRPGHGLEWIGDIYPGGRYSNYNEKFRGRVTLTADTSTSTVYMELSSLTSEDTAVYYCARYYESAMDFWGQGTTVTVSS VL: DIVMTQSPDSLAVSLGERATVNCKSSQNLLYNSNQKSYLAWFQQKPGQSPKLLIYWASTRESGVPDRFSGSGSGTDFTLTISSLQAEDLAVYYCQQYYNYPFTFGAGTKLELKR")
0.0022
>>> reported_result("149G11-VH2VL3 (antibody, human IgG1, kappa, V domains shown, humanized, human IgG1/kappa; also called 149G11H2L3) VH: QVQLVQSGAEVKKPGASVKVSCKASGYTFTNYWIHWVRQAPGQGLEWIGDIYPGGRYSNYNEKFRGRVTLTADTSTSTVYMELSSLTSEDTAVYYCARYYESAMDFWGQGTTVTVSS VL: DIVMTQSPDSLAVSLGERATVNCKSSQNLLYNSNQKSYLAWFQQKPGQSPKLLIYWASTRESGVPDRFSGSGSGTDFTLTISSLQAEDLAVYYCQQYYNYPFTFGAGTKLELKR")
0.00329
>>> reported_result("149G11-VH4VL2 (antibody, human IgG1, kappa, V domains shown, humanized, human IgG1/kappa) VH: QVQLVQSGAEVKKPGASVKVSCKASGYTFTNYWIHWVKQRPGHGLEWIGDIYPGGRYSNYNEKFRGRVTLTADTSTSTVYMELSSLTSEDTAVYYCARYYESAMDFWGQGTTVTVSS VL: DIVMTQSPDSLAVSLGERATINCKSSQNLLYNSNQKSYLAWFQQKPGQPPKLLIYWASTRESGVPDRFSGSGSGTDFTLTISSLQAEDLAVYYCQQYYNYPFTFGAGTKLELKR")
0.00309

Report measured Kd; entry is 70E11-VH2VL4 (antibody, human IgG1, kappa, V domains shown, humanized, human IgG1/kappa; also called 70E11H2L4) VH: QVQLVQSGAEVKKPGASVKVSCKASGYTFTSYNVHWVRQAPGQGLEWMGTIYPGNLATSYNQKFKGRVTLTADTSTSTVYMELSSLRSEDTAVYYCARSGTMDYWGQGTTVTVSS VL: EIVLTQSPGTLSLSPGERATMTCRASSSISSTYLHWYQQKPGASPKLLIYNTQNLASGVPARFSGSGSGTSYTLTISRLEPEDFAVYYCQQFGGYPLITFGAGTKLELKR
0.43

Report measured Kd; entry is 70E11-VH5VL3 (antibody, human IgG1, kappa, V domains shown, humanized, human IgG1/kappa; also called 70E11H5L3) VH: QVQLVQSGAEVKKPGASVKVSCKASGYTFTSYNVHWVKQTPGQGLEWIGTIYPGNLATSYNQKFKGKATLTADKSTSTVYMELSSLRSEDTAVYYCARSGTMDYWGQGTTVTVSS VL: EIVLTQSPGTLSLSPGERATLSCRASSSISSTYLHWYQQKPGASPKLLIYNTQNLASGIPDRFSGSGSGTSYTLTISRLEPEDFAVYYCQQFGGYPLITFGAGTKLELKR
0.25

Report measured Kd; entry is 70E11-VH3VL4 (antibody, human IgG1, kappa, V domains shown, humanized, human IgG1/kappa) VH: QVQLVQSGAEVKKPGASVKVSCKASGYTFTSYNVHWVRQAPGQGLEWIGTIYPGNLATSYNQKFKGRVTLTADKSTSTVYMELSSLRSEDTAVYYCARSGTMDYWGQGTTVTVSS VL: EIVLTQSPGTLSLSPGERATMTCRASSSISSTYLHWYQQKPGASPKLLIYNTQNLASGVPARFSGSGSGTSYTLTISRLEPEDFAVYYCQQFGGYPLITFGAGTKLELKR
0.0502

Report measured Kd; entry is 70E11-VH3VL3 (antibody, human IgG1, kappa, V domains shown, humanized, human IgG1/kappa) VH: QVQLVQSGAEVKKPGASVKVSCKASGYTFTSYNVHWVRQAPGQGLEWIGTIYPGNLATSYNQKFKGRVTLTADKSTSTVYMELSSLRSEDTAVYYCARSGTMDYWGQGTTVTVSS VL: EIVLTQSPGTLSLSPGERATLSCRASSSISSTYLHWYQQKPGASPKLLIYNTQNLASGIPDRFSGSGSGTSYTLTISRLEPEDFAVYYCQQFGGYPLITFGAGTKLELKR
0.124
